assay: qHTS for Inhibitors of Plasmodium falciparum (7G8) proliferation (AID 504316); also: nearly all actives have a fitted effect of over 65% in size; conditions: P. falciparum 7G8 in erythrocytes, SYBR Green DNA, 72 h; series mostly up to 6.7 µM
Records with an inconclusive call do not appear. The source made the active and inactive calls. Calls follow the shape of the dose curve; as a rule, active = well fitted inhibition curve with a large enough effect; inconclusive = small, poorly fitted or top-dose-only effect; inactive = flat fitted curve, though single readings scatter.
Mark one answer only. Choices: t for active, f for inactive

Illustrative cases are given below, each with its answer.
> print(dat)
                                   molecule  assignedcategory
1  COC(=O)CCC(=O)OC1(C)C(=O)C=C2C=C(C3CC3)N(C3CCCC3)C=C2C1=O (configuration not stated)                 f
2  COC(=O)C1=C(C(=O)OC)[C@@H]2N(C)c3ccc(OC)cc3[C@@]23C[C@@H](C(=O)OC)N(C(=O)C2CCC2)C3=N1                 f
3  COC(=O)CCCC1=CC2=C(c3ccccc3)C(=O)C(C)(OC(=O)C3CCCC3)C(=O)C2=CN1CCc1ccccn1 (configuration not stated)                 f
4  COC(=O)CCC(=O)OC1(C)C(=O)C2=CN(CCc3ccccn3)C(c3ccc(OC)cc3)=CC2=C(Br)C1=O (configuration not stated)                 f
5  CCCCc1nc2c(c3c1C[C@H](C)OC3)CN(S(=O)(=O)c1ccc(C#N)cc1)CC2                 f

**Query** What outcome does the record of this test show for CCCCC1=CC2=C(c3ccco3)C(=O)C(C)(OC(=O)c3ccc(OC)cc3)C(=O)C2=CN1c1ccccc1 (configuration not stated) ?
**Result** f

**Query** Same question for COC(=O)C1=C(C(=O)OC)[C@@H]2Nc3ccccc3[C@@]23C[C@@H](C(=O)OC)N(C(C)=O)C3=N1 please.
**Result** f

**Query** Now consider CCCCC1=CC2=CC(=O)C(C)(OC(=O)CC)C(=O)C2=CN1C(CO)CO (configuration not stated) and answer again.
**Result** f

**Query** Same again, this time with CC#CCN1c2ccccc2[C@]23C[C@@H](C(=O)OC)N(C(=O)COCc4ccccc4)C2=NC(C(=O)OC)=C(C(=O)OC)[C@H]13
**Result** f

**Query** Also CC(CCN1CCCc2nc(C)c(C)cc21)=NO[C@H](C)c1cn([C@@H]2COC[C@@H]2O)nn1 ?
**Result** f

**Query** COC(=O)C1=C(C(=O)OC)[C@@H]2N(Cc3ccccc3)c3ccccc3[C@@]23C[C@@H](C(=O)OC)N(C(C)=O)C3=N1 , same question.
**Result** f

**Query** Can you check CCCC[C@]12Cc3c(ccc4ccccc34)[C@H](O1)C1=C(O2)C(=O)c2ccccc2C1=O next?
**Result** t
